Ref: paper PMC3597700

molecular target: RHA dsRBD1 N30A (Homo sapiens, UniProt Q08211 1-91, N30A); assay: ITC
Sequence (Q08211 1-91 N30A): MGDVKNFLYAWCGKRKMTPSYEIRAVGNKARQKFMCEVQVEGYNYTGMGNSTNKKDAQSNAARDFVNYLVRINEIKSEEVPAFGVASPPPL
assay_endpoint: Kd (µM)
Field format: number, assumed µM, no unit text.

// returns reported Kd for input siRNA21 duplex (dsRNA, 5' phosphate) RNA 1: AGACAGCAUUAUGCUGUCUUU RNA 2: AGACAGCAUUAUGCUGUCUUU
14.5
